# assayed-target: T1, HLA-A*02:01 class I complex (conditional p*HLA*02:01, biotinylated heavy chain with beta2-microglobulin) (human, biotinylated heavy chain)
# T1 construct: UV-labile peptide p* is cleaved and exchanged for the test peptide; also called HLA 2.1
# protocol-notes: UV peptide exchange, HLA class I ELISA, % of Pos peptide;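 further: Streptavidin-captured HLA complexes after exchange detected via HRP anti-human B2M antibody, absorbance read, colour scales with intact complex, normalized to exchange control peptide as 100%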
Classification field: rule met = Average % at or over 30%; rule not met = Average % under 30%.

Please review the following examples before continuing.
In [3]: df
Out[3]:
                                     binder   label_value
0  GLAPPQLLI (also called M140) [TP53.H193L mutant peptide GLAPPQLLI]  rule not met
1  YLDCGIHSL (also called M034) [CTNNB1.S33C9 mimic peptide YLDCGIHSL]      rule met
2  YMDSGIHFI (also called M031) [CTNNB1_S37F14 mimic peptide YMDSGIHFI]      rule met
3  NMDEYVHNT (also called M110) [SF3B1.R625H mutant peptide NMDEYVHNT]  rule not met
4  GLAPPQYLI (also called M150) [TP53.H193Y mutant peptide GLAPPQYLI]  rule not met

Task item: Exam item: decide whether the reported Average % for YLDSGIHFV (also called M032) [CTNNB1_S37F5 mimic peptide YLDSGIHFV] is at least 30%.
Reply: rule met

Task item: Form field: Average % at least 30%? Entry: VVSDAISAV (also called M120; SOX17.S4031) [SOX17.S403I mutant peptide VVSDAISAV]
Reply: rule met

Task item: In plain terms: is recorded Average % at least 30% for SMTCTYFPI (also called M215) [TP53_S127F12 mimic peptide SMTCTYFPI] ?
Reply: rule not met
